- target.desc: rat olfactory CNGA2 channel (homomeric) (Rattus norvegicus, UniProt Q00195, E342K)
- Sequence (Q00195 whole entry E342K): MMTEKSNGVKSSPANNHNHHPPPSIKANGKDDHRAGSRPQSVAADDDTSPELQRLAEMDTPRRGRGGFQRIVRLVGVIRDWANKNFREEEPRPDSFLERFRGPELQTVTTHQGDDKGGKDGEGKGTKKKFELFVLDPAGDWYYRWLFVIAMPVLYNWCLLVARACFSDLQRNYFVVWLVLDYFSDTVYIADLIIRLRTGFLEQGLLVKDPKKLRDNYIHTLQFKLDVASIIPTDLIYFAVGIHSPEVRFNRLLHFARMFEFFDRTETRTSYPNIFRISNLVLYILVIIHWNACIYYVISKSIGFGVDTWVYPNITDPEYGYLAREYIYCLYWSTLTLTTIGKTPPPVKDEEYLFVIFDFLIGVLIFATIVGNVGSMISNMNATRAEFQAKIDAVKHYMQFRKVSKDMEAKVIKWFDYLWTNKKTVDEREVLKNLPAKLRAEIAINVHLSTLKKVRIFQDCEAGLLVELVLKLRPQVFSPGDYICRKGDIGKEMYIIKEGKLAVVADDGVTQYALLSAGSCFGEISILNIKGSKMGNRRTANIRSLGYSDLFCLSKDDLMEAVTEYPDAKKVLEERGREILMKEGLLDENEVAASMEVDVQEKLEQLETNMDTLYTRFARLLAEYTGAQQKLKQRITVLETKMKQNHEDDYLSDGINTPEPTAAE
- method.description: inside-out patch clamp, cGMP-activated current, Hill fit
- Format: cell-based
assay.endpoint: EC50 (µM)
The figure you give is taken to be in µM; do not add the unit.

Input line: I am curious: what EC50 value has been reported for `Nc1nc2c(ncn2[C@@H]2O[C@@H]3COP(=O)(O)O[C@H]3[C@H]2O)c(=O)[nH]1` ?
Output line: 8.6
